- SYSTEM_UNDER_TEST: T1, hRET.mmh (human, UniProt P07949 29-635, biotinylated in the ELISA of Example 4 (biot-hRET.mmh); not in the SPR of Example 3)
- T1 construct: also called biot-hRET.mmh; soluble monomeric human RET
- ASSAY_METHOD_TEXT: SPR Biacore T200, mAb capture, 25 C
PARAMETER: koff (s⁻¹)
Answers are plain numbers, in s⁻¹.

Item under review: H4H8067P (antibody, human IgG4, V domains shown, human IgG4 Fc (H4H prefix)) VH: QVQLVESGGGVVQPGRSLRLSCVASGFTFSNYGMHWVRQAPGKGLEWVALIWYDGSNKYFADSVKGRFTISRDNSKRMMFLEMNSLRAEDTAIYYCTRDRLFDFWGQGTLVTVSS VL: AIQMTQSPSSLSASVGDRVSITCRASQDIRHDLGWFHQKPGKAPKLLIYAASTLQSGVPSRFGGSGSGTDFTLTITSLQPEDFGTYYCLQDYNYPATFGQGTRLEIK . Reported koff?
0.000235

Request the reported koff associated with H4H8071P (antibody, human IgG4, V domains shown, human IgG4 Fc (H4H prefix)) VH: EVQLVESGGGLVQPGGSLRLSCAASGFTFTTYFMSWVRQAPGKGLEWVSGISGSGTSTFYVDSMKGRFTISRDNSKNTLYLQMNSLRVEDTAVYFCAKENTYGHFDFWGQGTLVTVSS VL: DIQLTQSPSFLSASVGDRVTITCWASQDISSHLAWYQQKPGKAPKVLIYDASTLQSGVPSRISGSGSGTEFTLTISSLQPEDFAAYYCQQLDGYPYTFGQGTKLEIK
0.000219

Could you tell me which koff is on file for H4H8046P (antibody, human IgG4, V domains shown, human IgG4 Fc (H4H prefix)) VH: QVQLVQSRDEVKKPGASVKVSCKASGYTFTTYGISWVRQAPGQGLEWMGWINTYNGDTNYAQKVQDRVIMTTDTSTSTAYMELRSLRSDDTAVYFCAGARPLGGRRAFDIWGQGTMVTVSS VL: DIQMTQSPSSLSASVGDRVTITCRASQGISHYLAWYQQKPGKVPKLLIYAASTLQSGVPSRFSGSGSGTDFTLTISSLQPEDVATYYCQKYNSVPWTFGQGTKVEIK ?
0.000301

State the recorded koff for this entry: H4H8045P (antibody, human IgG4, V domains shown, human IgG4 Fc (H4H prefix)) VH: EVQLVESGGALVQPGGSLRLSCAASGFTFSNYAMTWVRQAPGMGLEWVSGISSSGASTFYADSVKGRFTISRDNSKNTLYLQMNSLRAEDTAVYYCAKEDYWGWFDYWGQGTLVTVSS VL: DIQLTQSPSFLSASVGDRVTITCWASQDVSSYLAWYQQEPGKAPKVLIYDASTLQSGVPSRFSGSGSGTEFTLTISSLQPEDFAPYYCQQLNSYPYTFGQGTKLEIK
0.000246

Sample H4H8084P (antibody, human IgG4, V domains shown, human IgG4 Fc (H4H prefix)) VH: QVQLVESGGGVVQPGRSLRLSCEASGFTFRNYGMHWVRQAPGKGLDWVSTIYYDGSDEYYSDSVKGRFTISRDNSKNTLYLQMNSLRAEDTAVYYCARDPPSFRYFDYWGQGTLVTVSS VL: DIQMTQSPSTLSASVGDRVTITCRASQSIRSWLTWYQQKPGKAPKVLIYKASTLERGVPSRFSGSGSGTEFTLTISSLQPEDFATYYCHQYSSYSYTFGQGTKLEIK — what was its koff?
0.000375

Your task in this section: give koff for each listed record.
1. H4H8060P (antibody, human IgG4, V domains shown, human IgG4 Fc (H4H prefix)) VH: QVTLKESGPVLVKPTETLTLTCTVSGFSLSSARMGVSWIRQPPGKALEWLAHIFSTDEKSYSTSLKSRLSISKDTSLSQVVLIMTNMDPVDTATYYCARRTTMAPYYYYYGMDVWGHGTTVTVSS VL: AIQMTQSPASLSASVGDRVTITCRASQGIRNDLGWYQQKPGKAPKLLISAASSLQSGVPSRFSGSGSGTDFTLTISSLQPEDFATYYCLQDYKYPWTFGQGTKVEIK
2. H4H8083P (antibody, human IgG4, V domains shown, human IgG4 Fc (H4H prefix)) VH: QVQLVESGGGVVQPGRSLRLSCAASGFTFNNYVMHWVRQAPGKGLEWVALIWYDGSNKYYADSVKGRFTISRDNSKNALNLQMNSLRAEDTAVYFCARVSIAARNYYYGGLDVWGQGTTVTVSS VL: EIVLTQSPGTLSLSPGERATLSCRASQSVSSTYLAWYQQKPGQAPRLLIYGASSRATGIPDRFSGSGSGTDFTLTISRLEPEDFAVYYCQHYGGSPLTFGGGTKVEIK

1: 0.000311; 2: 0.000484
